Data provenance is ChEMBL document CHEMBL1127848.

Molecular target: Human immunodeficiency virus type 1 protease (Human immunodeficiency virus 1)
Experiment: Inhibitory activity against HIV-1 Protease
// assign yes (1) if IC50 falls strictly below 100 nM, else no (0) (ties count as no (0))

> print(dat)
                                   molecule  label.value
1  CC(C)CCN(CC(O)[C@H](Cc1ccccc1)NC(=O)[C@H](CC(N)=O)NC(=O)c1ccc2ccccc2n1)C(=O)NC(C)(C)C (stereo partly specified)      yes (1)
2  CC[C@H](C)[C@H](NC(=O)[C@H](C(C)C)[C@@H](O)[C@H](O)[C@H](CC1CCCCC1)NC(=O)c1cccc(C)c1OCOc1ccccc1)C(=O)NCc1nc2ccccc2[nH]1       no (0)
3  CCNC(=O)N(CC(C)C)CC(O)[C@H](Cc1ccccc1)NC(=O)[C@H](CC(N)=O)NC(=O)OCc1ccccc1 (stereo partly specified)       no (0)
4  CC(C)[C@@H](C(=O)N[C@H]1Cc2ccccc2[C@H]1O)[C@@H](O)[C@H](O)[C@H](CC1CCCCC1)NC(=O)c1ccccc1      yes (1)
5  CC[C@H](C)[C@H](NC(=O)[C@H](C(C)C)[C@@H](O)[C@H](O)[C@H](CC1CCCCC1)NC(=O)c1ncccc1OCSc1ccccc1)C(=O)NCc1nc2ccccc2[nH]1       no (0)

--- query ---
Q: # TODO verify IC50 < 100 nM strictly for this molecule: CCCCNC(=O)N(CC(C)C)CC(O)[C@H](Cc1ccccc1)NC(=O)[C@H](CC(N)=O)NC(=O)c1ccc2ccccc2n1 (stereo partly specified)
A: no (0)
